procedureDetails: NCI Yeast Anticancer Drug Screen. Data for the bub3 strain (AID 167)
conditions: S. cerevisiae bub3 mutant strain; at 50.0 µM unless noted
Compounds without any hit were thinned out: in the full panel of roughly 79,000, 15% have a hit. Active and inactive are the calls of the source. No stated cut-off is given here; in the data, active means growth inhibition above about 70%; inactive means the rest.
Please reply with one of these outcomes: active, inactive

molecule=CC(C)NC(=O)OCc1c(COC(=O)NC(C)C)c(-c2ccccc2)n(C)c1-c1ccccc1 labelclass=inactive

Q. # outcome recorded in this test, key = Cc1ccc(S(=O)(=O)/C=C(/SC#N)C2CCCCC2)cc1
A. active

Q. # outcome recorded in this test, key = Nc1ccccc1S(=O)(=O)Nc1c(N)nc(SCC(=O)O)[nH]c1=O
A. inactive

Q. # outcome recorded in this test, key = O=C(c1ccc(Cl)cc1)N1CCC(CCCc2ccccc2)CC1
A. inactive

Q. # outcome recorded in this test, key = FC(F)(F)c1ccc2nc(NCc3ccccc3)c(-c3ccccc3)nc2c1
A. inactive

Q. # outcome recorded in this test, key = N#CCCC1(CCC#N)CCCC(CCC#N)(CCC#N)C1=O
A. inactive

Q. # outcome recorded in this test, key = CCOC(=O)/C(=C\c1ccccc1)c1ccccc1
A. inactive

Q. # outcome recorded in this test, key = COc1cccc(/C=C/C(C)=N/NC(N)=O)c1
A. inactive

Q. # outcome recorded in this test, key = COc1cc(C)cc2c1C(C)(C)CCC2(C)C
A. inactive

Q. # outcome recorded in this test, key = CC(C)N(CC(C)(C)O)C(=O)c1ccccc1
A. inactive

Q. # outcome recorded in this test, key = Nc1cncnc1N
A. inactive

Q. # outcome recorded in this test, key = C=C(C)[C@H]1C=C[C@@H](OC(=O)c2cccnc2)[C@@]23CO[C@@](C)([C@H](OC(=O)c4cccnc4)[C@@]4(OC(C)=O)C[C@H](C)[C@H](OCCC)[C@@H]4[C@H]2OC(C)=O)[C@H]13
A. inactive

Q. # outcome recorded in this test, key = Oc1ccc(-c2c3ccccc3c(-c3ccc(O)cc3)c3ccccc23)cc1
A. inactive
